- ASSAY_TARGET: KOR (Homo sapiens)
- Construct: expressed in transfected cells; host or cells: CHO (hKOR-CHO)
- Sequence (P41145 whole entry): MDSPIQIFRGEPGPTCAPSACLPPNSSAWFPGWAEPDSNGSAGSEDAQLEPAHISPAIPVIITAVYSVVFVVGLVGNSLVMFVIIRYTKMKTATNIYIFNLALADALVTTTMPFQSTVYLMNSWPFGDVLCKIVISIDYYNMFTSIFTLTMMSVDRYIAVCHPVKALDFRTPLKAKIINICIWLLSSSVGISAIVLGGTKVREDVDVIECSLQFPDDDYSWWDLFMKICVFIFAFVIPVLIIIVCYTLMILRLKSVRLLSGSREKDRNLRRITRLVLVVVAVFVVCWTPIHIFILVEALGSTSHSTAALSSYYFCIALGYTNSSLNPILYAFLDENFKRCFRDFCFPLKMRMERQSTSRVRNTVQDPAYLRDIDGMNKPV
- RUN_DESCRIPTION: [35S]GTP-γ-S binding assay, hKOR-CHO cells
- Assay type: biochemical
- CONDITION_PARAMETERS: stimulation of [35S]GTP-γ-S binding; no stim = no stimulation
METRIC: agonist activity KOR EC50

1. O=C(OC12Cc3cc(-c4ccc(Cl)cc4)cnc3C3Oc4c(O)ccc5c4C31CCN(CC1CC1)C2C5)c1ccccc1 (stereo not shown) [Compound 18a]
no stim
2. CN1CCC23c4c5ccc(O)c4OC2c2ncc(-c4ccc(Cl)cc4)cc2CC3(OCCCc2ccccc2)C1C5 (stereo not shown) [Compound 17h]
no stim
3. Oc1ccc2c3c1OC1c4ncc(-c5ccc(Cl)cc5)cc4C=C4C(C2)N(CC2CC2)CCC431 (stereo not shown)
no stim
4. CN1CCC23c4c5ccc(O)c4OC2c2ncc(-c4ccc(Cl)cc4)cc2CC3(OC(=O)c2ccccc2)C1C5 (stereo not shown) [Compound 18d]
no stim
